// provenance: ChEMBL document CHEMBL1201862

- Test system: 786-0
- TEST_DETAILS: NCI tumour cell line growth inhibition, 48 h
Active and inactive are the calls of the source. Cut-off read from the data, not from the text of the source: active = GI50 up to about 1.1 µM and inactive = higher.
Select the correct class. Options are active, inactive and nothing else.

Solved entries (count: 7):
- CC1(C)O[C@@H]2C[C@H]3[C@@H]4C[C@H](F)C5=CC(=O)C=C[C@]5(C)[C@@]4(F)[C@@H](O)C[C@]3(C)[C@]2(C(=O)CO)O1 [FLUOCINOLONE ACETONIDE]: inactive
- CC1(C)CC2CC(CC(C)(C)C2=O)C1=O: inactive
- CCOC(=O)c1c(N2CCOCC2)[nH]c(=O)c(C(c2c(O)c(C(=O)OCC)c(N3CCOCC3)[nH]c2=O)C(C)C)c1O: inactive
- O=C1/C(=C\c2ccc([N+](=O)[O-])cc2)CS(=O)(=O)C/C1=C/c1ccc([N+](=O)[O-])cc1: active
- Cc1cc(N(CCC#N)CCC#N)ccc1/C=N\c1ccc(C(=O)NN2C(=O)/C(=C/c3ccc(N(CCC#N)CCC#N)cc3)N=C2c2cc([N+](=O)[O-])ccc2Cl)cc1: inactive
- Cc1ccc(S(=O)(=O)NN=C2C(C)CC(C(C)(C)C)CC2C)cc1 (stereo not drawn): inactive
- CCOc1cccc2ccc[n+](CC)c12: inactive

# next compound below
IN: Please state the recorded outcome for this compound: O=C1C(C(O)(C(F)(F)F)C(F)(F)F)CCC1C(O)(C(F)(F)F)C(F)(F)F (stereo not drawn)
OUT: inactive
